// compounds with reported pIC50 on Amine oxidase [flavin-containing] A (Homo sapiens), multi-publication
pIC50: −log10 of the molar value.

# example entries with known answers
> print(dat)
                                   compound  result
1  N#Cc1cccc(-c2nc(COc3ccc4c(=O)n(-c5ccc(O)cc5)cnc4c3)no2)c1  < 5.00
2  CC(C)CN1CC(C#Cc2ccc3c(=O)c(-c4ccc(NS(C)(=O)=O)cc4)coc3c2)C1  < 3.89
3  O=C(Nc1ccc([C@@H]2C[C@H]2NCC2CC2)cc1)c1coc(-c2ccccc2)n1 (relative stereo)  < 5.00
4  Cn1cncc1C#Cc1ccc2c(=O)c(-c3ccc(NS(C)(=O)=O)cc3)coc2c1  < 3.89

Find pIC50 (Amine oxidase [flavin-containing] A (Homo sapiens)) for the entry O=C(Nc1ccc([C@@H]2C[C@H]2NCc2ccc(Cl)c(Cl)c2)cc1)c1ccc(-c2ccccc2)cc1 (relative stereo)
5.40

Also O=C(Nc1ccc([C@@H]2C[C@H]2NCc2ccccc2)cc1)c1cccc(N2CCCCC2)c1 (relative stereo) ?
< 5.00

Also `Cc1cccc(Cl)c1C(=O)NCc1cnc(N2CCNC(=O)C2)nc1` ?
< 5.00

Also `N#Cc1cccc(COc2ccc3c(=O)n(-c4ccc(O)cc4)cnc3c2)c1` ?
< 5.00
